# Test system: Plasmodium falciparum
# experiment: In vitro inhibition of Plasmodium falciparum K1 (0.00054 ug/mL)
# Type: functional, organism-based
metric-name: IC50 (nM)
Kindly answer with a numeric value in nM, unit omitted.

So the reported IC50 for C=C(C)C1OO[C@]2(O[C@H]1C1CC1)[C@H]1CC3C[C@@H](C1)C[C@H]2C3 (stereo partly specified) , on Plasmodium falciparum, turned out to be 1.9
